# test-system: Human Cav3.1 calcium channel (Homo sapiens, UniProt O43497)
# Construct: expressed in transfected cells; host or cells: HEK-293 natClytin/TASK1+Cav3.1 cell line
# Sequence (O43497 whole entry): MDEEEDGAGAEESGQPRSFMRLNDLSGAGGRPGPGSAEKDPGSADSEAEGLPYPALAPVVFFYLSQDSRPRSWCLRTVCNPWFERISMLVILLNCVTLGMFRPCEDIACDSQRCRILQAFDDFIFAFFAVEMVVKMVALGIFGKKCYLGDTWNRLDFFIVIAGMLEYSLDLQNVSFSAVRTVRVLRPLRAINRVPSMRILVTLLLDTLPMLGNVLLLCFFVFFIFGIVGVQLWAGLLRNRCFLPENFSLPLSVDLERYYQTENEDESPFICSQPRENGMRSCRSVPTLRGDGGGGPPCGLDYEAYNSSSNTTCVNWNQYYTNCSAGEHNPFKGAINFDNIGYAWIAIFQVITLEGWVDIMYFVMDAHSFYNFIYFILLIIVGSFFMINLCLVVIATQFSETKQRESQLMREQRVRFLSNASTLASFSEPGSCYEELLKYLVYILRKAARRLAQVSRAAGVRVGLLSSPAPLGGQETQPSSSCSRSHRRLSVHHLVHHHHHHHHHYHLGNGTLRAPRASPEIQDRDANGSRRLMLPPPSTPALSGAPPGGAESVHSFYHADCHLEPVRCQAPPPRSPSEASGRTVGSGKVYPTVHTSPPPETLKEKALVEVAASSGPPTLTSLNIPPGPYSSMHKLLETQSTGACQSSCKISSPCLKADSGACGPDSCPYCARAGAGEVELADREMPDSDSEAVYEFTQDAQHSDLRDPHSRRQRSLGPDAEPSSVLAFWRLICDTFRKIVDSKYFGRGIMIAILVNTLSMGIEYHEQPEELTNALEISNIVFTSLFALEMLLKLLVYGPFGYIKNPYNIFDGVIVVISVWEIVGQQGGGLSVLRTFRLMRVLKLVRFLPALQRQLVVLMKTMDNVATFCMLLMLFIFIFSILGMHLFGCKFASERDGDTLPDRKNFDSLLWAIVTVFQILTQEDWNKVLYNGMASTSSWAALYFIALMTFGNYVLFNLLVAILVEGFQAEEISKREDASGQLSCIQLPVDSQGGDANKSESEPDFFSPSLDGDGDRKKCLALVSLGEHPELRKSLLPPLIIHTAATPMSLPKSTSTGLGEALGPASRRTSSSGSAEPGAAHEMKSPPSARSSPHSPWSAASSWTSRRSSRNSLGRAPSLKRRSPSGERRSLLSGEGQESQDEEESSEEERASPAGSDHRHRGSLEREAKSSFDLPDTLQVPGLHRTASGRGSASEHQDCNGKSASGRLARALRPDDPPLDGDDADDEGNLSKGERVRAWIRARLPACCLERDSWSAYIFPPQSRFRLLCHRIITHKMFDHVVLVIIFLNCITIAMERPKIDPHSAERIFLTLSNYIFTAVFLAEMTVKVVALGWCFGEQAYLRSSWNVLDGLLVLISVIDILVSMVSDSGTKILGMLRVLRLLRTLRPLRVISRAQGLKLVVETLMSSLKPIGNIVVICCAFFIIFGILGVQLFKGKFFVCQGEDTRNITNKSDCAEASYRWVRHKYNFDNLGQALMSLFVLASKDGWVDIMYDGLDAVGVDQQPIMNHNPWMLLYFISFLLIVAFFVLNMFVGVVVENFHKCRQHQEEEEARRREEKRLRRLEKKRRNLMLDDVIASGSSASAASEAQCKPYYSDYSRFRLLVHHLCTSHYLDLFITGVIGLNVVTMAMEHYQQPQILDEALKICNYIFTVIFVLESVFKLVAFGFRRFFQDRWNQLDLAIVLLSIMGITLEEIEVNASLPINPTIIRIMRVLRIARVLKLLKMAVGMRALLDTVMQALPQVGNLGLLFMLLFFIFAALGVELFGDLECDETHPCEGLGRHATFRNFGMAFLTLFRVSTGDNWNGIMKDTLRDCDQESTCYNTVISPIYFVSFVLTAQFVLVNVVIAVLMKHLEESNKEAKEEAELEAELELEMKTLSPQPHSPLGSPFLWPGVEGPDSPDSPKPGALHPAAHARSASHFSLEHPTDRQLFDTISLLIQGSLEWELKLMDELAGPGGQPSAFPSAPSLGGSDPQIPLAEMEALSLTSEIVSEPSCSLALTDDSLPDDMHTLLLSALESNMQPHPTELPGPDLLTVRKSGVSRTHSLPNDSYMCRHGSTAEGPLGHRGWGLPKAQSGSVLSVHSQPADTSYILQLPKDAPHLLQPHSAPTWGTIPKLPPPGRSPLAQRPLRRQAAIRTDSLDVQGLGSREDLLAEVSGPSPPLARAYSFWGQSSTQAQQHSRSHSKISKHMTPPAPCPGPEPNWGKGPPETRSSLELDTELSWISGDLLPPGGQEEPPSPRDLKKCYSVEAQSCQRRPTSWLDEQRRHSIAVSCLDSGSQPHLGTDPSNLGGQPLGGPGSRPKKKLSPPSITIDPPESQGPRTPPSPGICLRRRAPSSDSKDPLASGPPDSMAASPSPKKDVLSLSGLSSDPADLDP
# method: Human Cav3.1 calcium channel patch clamp assay (SyncroPatch 384PE; single point and IC50, voltage dependent block)
# Assay type: cell-based
# setup-conditions: Testing Conc 1.25; HEK-293 natClytin/TASK1+Cav3.1 cell line, patch clamp
Classify: True when % Inhibition (Single Point Data) is strictly less than 80%; False when % Inhibition (Single Point Data) is not.

{"compound": "Cc1cc(Cl)cc(NC(=O)CN2CC3CC(C2)N3CC(=O)NC(C)(C)C)c1", "label-value": "False"}
{"compound": "CC1(C)CCC(=O)N1CCN1C2CC1CN(Cc1nc3c(Cl)cc(F)cc3[nH]1)C2", "label-value": "True"}
{"compound": "CC(C)(C)NC(=O)CN1C2CCC1CN(CC(=O)Nc1cc(F)cc(Cl)c1)C2", "label-value": "False"}
{"compound": "Fc1ccc(Cl)c2nc(CN3CCN(CC(F)(F)C4CCCC4)CC3)[nH]c12", "label-value": "True"}
{"compound": "CC(C)(C)NC(=O)CN1C[C@H]2C[C@@H]1CN2CC(=O)Nc1cc(F)cc(Cl)c1", "label-value": "True"}
{"compound": "O=C(CN1C2CCC1CN(Cc1nc3c(Cl)cc(F)cc3[nH]1)C2)N1CCCCC1", "label-value": "False"}
{"compound": "CC(C)(C)NC(=O)CN1CC2CC1CN2CC(=O)Nc1cccc(C(F)F)c1 (centres unmarked)", "label-value": "True"}
{"compound": "CC(C)(C)NC(=O)CN1C[C@@H]2C[C@H]1CN2CC(=O)NC12CC3CC(CC(C3)C1)C2", "label-value": "False"}
{"compound": "O=C(CN1C2CC1CN(Cc1nc3c(Cl)ccc(F)c3[nH]1)C2)NC1(C(F)(F)F)COC1", "label-value": "False"}
{"compound": "CC(C)(C)NC(=O)CN1C2CC1CN(CC(=O)Nc1ccc(F)c(OC(F)F)c1)C2", "label-value": "False"}
{"compound": "COC(=O)C(C)(C)N(C)C(=O)CN1C2CCC1CN(Cc1nc3c(Cl)cc(F)cc3[nH]1)C2", "label-value": "True"}
{"compound": "Fc1ccc(Cl)c2nc(CN3CC4CC(C3)N4CC(F)(F)C3CCCCC3)[nH]c12", "label-value": "False"}
{"compound": "CC(C)(C)NC(=O)CN1CC2CC1CN2CC(=O)Nc1cc(Cl)ccc1F (centres unmarked)", "label-value": "True"}
{"compound": "CC1(NC(=O)CN2C3CC2CN(CC(=O)Nc2ccc(F)c(Cl)c2)C3)CC1", "label-value": "True"}
{"compound": "OC1(CN2C3CC2CN(Cc2nc4c(Cl)cc(F)cc4[nH]2)C3)CCC(F)(F)CC1", "label-value": "False"}
{"compound": "CC(C)(C)NC(=O)CN1C2CCC1CN(CCc1nc3c(Cl)cc(F)cc3[nH]1)C2", "label-value": "True"}

Data provenance is patent US20250213558A1.
